- EXPERIMENTAL_SYSTEM: Adenosine receptor A3 (Homo sapiens); also: in other assays of this panel Not Active means under 50% inhibition at 10 µM
- Sequence (P0DMS8 whole entry): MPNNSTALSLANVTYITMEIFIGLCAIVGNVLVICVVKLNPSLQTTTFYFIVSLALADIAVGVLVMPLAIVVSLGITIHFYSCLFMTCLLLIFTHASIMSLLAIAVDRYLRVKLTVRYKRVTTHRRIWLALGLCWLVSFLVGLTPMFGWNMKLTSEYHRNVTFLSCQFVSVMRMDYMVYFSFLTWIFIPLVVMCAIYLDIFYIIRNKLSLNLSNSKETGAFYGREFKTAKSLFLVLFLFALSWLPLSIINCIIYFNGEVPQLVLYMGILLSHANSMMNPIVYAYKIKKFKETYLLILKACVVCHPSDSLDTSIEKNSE
- Type: cell membranes, CHO-K1, Membrane
- PARTICULARS: cho-k1

[
  {
    "COMPOUND": "O=[As][O-].[Na+] [SODIUM ARSENITE]",
    "IC50": "Not Active"
  },
  {
    "COMPOUND": "CO[C@@]12[C@H](COC(N)=O)C3=C(C(=O)C(C)=C(N)C3=O)N1C[C@@H]1N[C@@H]12",
    "IC50": "Not Active"
  },
  {
    "COMPOUND": "C#C[C@]1(O)CC[C@H]2[C@@H]3CCC4=CC(=O)CC[C@@H]4[C@H]3CC[C@@]21C",
    "IC50": "Not Active"
  },
  {
    "COMPOUND": "Nc1nc(N)c2nc(-c3ccccc3)c(N)nc2n1",
    "IC50": "Not Active"
  },
  {
    "COMPOUND": "COC(=O)Nc1nc2ccc(C(=O)c3ccccc3)cc2[nH]1",
    "IC50": "Not Active"
  },
  {
    "COMPOUND": "Cc1c(N)nc([C@H](CC(N)=O)NC[C@H](N)C(N)=O)nc1C(=O)N[C@H](C(=O)N[C@H](C)[C@@H](O)[C@H](C)C(=O)N[C@H](C(=O)NCCc1nc(-c2nc(C(=O)NCCC[S+](C)C)cs2)cs1)[C@@H](C)O)[C@@H](O[C@@H]1O[C@@H](CO)[C@@H](O)[C@H](O)[C@@H]1O[C@H]1O[C@H](CO)[C@@H](O)[C@H](OC(N)=O)[C@@H]1O)c1c[nH]cn1.[Br-]",
    "IC50": "Not Active"
  }
]

====

- PROTOCOL_NOTES: DRUGMATRIX: Nicotinic Acetylcholine radioligand binding (ligand: [125I] Epibatidine)
- Format: cell membranes, Membrane
- PARTICULARS: imr-32; Not Active = under 50% inhibition at 10 µM
PROPERTY_LABEL: IC50

[
  {
    "COMPOUND": "NC(N)=Nc1nc(CSCCC(N)=NS(N)(=O)=O)cs1",
    "RESULT": "Not Active"
  },
  {
    "COMPOUND": "O=[As][O-].[Na+] [SODIUM ARSENITE]",
    "RESULT": "Not Active"
  },
  {
    "COMPOUND": "CC(=O)O[C@]1(C(C)=O)CC[C@H]2[C@@H]3C[C@H](C)C4=CC(=O)CC[C@]4(C)[C@H]3CC[C@@]21C [MEDROXYPROGESTERONE ACETATE]",
    "RESULT": "Not Active"
  },
  {
    "COMPOUND": "O=C1CC[C@@]2(O)[C@H]3Cc4ccc(O)c5c4[C@@]2(CCN3CC2CC2)[C@H]1O5 [NALTREXONE]",
    "RESULT": "Not Active"
  },
  {
    "COMPOUND": "C[C@H](C(=O)O)c1ccc2oc(-c3ccc(F)cc3)nc2c1",
    "RESULT": "Not Active"
  },
  {
    "COMPOUND": "COc1ccccc1OCCNCC(O)COc1cccc2[nH]c3ccccc3c12 (stereo not drawn)",
    "RESULT": "Not Active"
  },
  {
    "COMPOUND": "Oc1ccccc1",
    "RESULT": "Not Active"
  },
  {
    "COMPOUND": "COc1ccc(C[C@H](N)C(=O)N[C@H]2[C@@H](O)[C@H](n3cnc4c(N(C)C)ncnc43)O[C@@H]2CO)cc1",
    "RESULT": "Not Active"
  }
]

====

- PROTOCOL_NOTES: DRUGMATRIX: Phosphodiesterase PDE3 enzyme inhibition (substrate: [3H]cAMP + cAMP)
- Format: tissue-based, Homo sapiens
- PARTICULARS: platelet; Not Active = under 50% inhibition at 10 µM

[
  {
    "MOLECULE": "Cl.NC[C@H]1CC[C@H](C(=O)Oc2ccc(CCC(=O)O)cc2)CC1 [CETRAXATE HYDROCHLORIDE]",
    "IC50": "Not Active"
  },
  {
    "MOLECULE": "C#C[C@]1(O)CC[C@H]2[C@@H]3[C@H](C)CC4=C(CCC(=O)C4)[C@H]3CC[C@@]21C [TIBOLONE]",
    "IC50": "Not Active"
  },
  {
    "MOLECULE": "O=C(Nc1ccc(Cl)c(Cl)c1)c1cc(Cl)cc(Cl)c1O [3,3',4',5-TETRACHLOROSALICYLANILIDE]",
    "IC50": "Not Active"
  },
  {
    "MOLECULE": "C[C@]12CC[C@@H](O)C[C@@H]1CC[C@@H]1[C@@H]2CC[C@]2(C)C(=O)CC[C@@H]12 [ANDROSTERONE]",
    "IC50": "Not Active"
  },
  {
    "MOLECULE": "Cc1nnc(NS(=O)(=O)c2ccc(N)cc2)s1 [SULFAMETHIZOLE]",
    "IC50": "Not Active"
  },
  {
    "MOLECULE": "CC[C@H](C)[C@@H](CO[C@@H](Cc1ccccc1)C(=O)N[C@@H](CCS(C)(=O)=O)C(=O)OC(C)C)NC[C@@H](N)CS",
    "IC50": "Not Active"
  },
  {
    "MOLECULE": "OC[C@H]1O[C@@H]2O[C@H]3[C@H](O)[C@@H](O)[C@@H](O[C@H]4[C@H](O)[C@@H](O)[C@@H](O[C@H]5[C@H](O)[C@@H](O)[C@@H](O[C@H]6[C@H](O)[C@@H](O)[C@@H](O[C@H]7[C@H](O)[C@@H](O)[C@@H](O[C@H]1[C@H](O)[C@H]2O)O[C@@H]7CO)O[C@@H]6CO)O[C@@H]5CO)O[C@@H]4CO)O[C@@H]3CO [ALFADEX]",
    "IC50": "Not Active"
  },
  {
    "MOLECULE": "CC(=O)O[C@]1(C(C)=O)CC[C@H]2[C@@H]3C[C@H](C)C4=CC(=O)CC[C@]4(C)[C@H]3CC[C@@]21C [MEDROXYPROGESTERONE ACETATE]",
    "IC50": "Not Active"
  },
  {
    "MOLECULE": "c1ccc(Cn2ccnc2)cc1",
    "IC50": "Not Active"
  },
  {
    "MOLECULE": "CC[C@H](C)C(=O)O[C@H]1CCC=C2C=C[C@H](C)[C@H](CC[C@@H]3C[C@@H](O)CC(=O)O3)[C@H]21 [MEVASTATIN]",
    "IC50": "Not Active"
  },
  {
    "MOLECULE": "Cc1c(N)nc([C@H](CC(N)=O)NC[C@H](N)C(N)=O)nc1C(=O)N[C@H](C(=O)N[C@H](C)[C@@H](O)[C@H](C)C(=O)N[C@H](C(=O)NCCc1nc(-c2nc(C(=O)NCCC[S+](C)C)cs2)cs1)[C@@H](C)O)[C@@H](O[C@@H]1O[C@@H](CO)[C@@H](O)[C@H](O)[C@@H]1O[C@H]1O[C@H](CO)[C@@H](O)[C@H](OC(N)=O)[C@@H]1O)c1c[nH]cn1.[Br-] [BLEOMYCIN A2]",
    "IC50": "Not Active"
  }
]

====

- EXPERIMENTAL_SYSTEM: Adenosine receptor A3 (Homo sapiens); also: in other assays of this panel Not Active means under 50% inhibition at 10 µM;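 also: radioligand binding assay with AB-MECA serving as the labeled ligand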
- Type: cell membranes, CHO-K1, Membrane
- PARTICULARS: cho-k1
PROPERTY_LABEL: IC50

[
  {
    "COMPOUND": "CS(=O)(=O)c1ccc(C2=C(c3ccccc3)C(=O)OC2)cc1",
    "EXPERIMENTAL_SYSTEM": "Adenosine receptor A3 (Homo sapiens)",
    "PROPERTY_LABEL": "IC50",
    "RESULT": "Not Active"
  },
  {
    "COMPOUND": "Oc1ncnc2[nH]ncc12",
    "EXPERIMENTAL_SYSTEM": "Adenosine receptor A3 (Homo sapiens)",
    "PROPERTY_LABEL": "IC50",
    "RESULT": "Not Active"
  },
  {
    "COMPOUND": "CC(C)Cn1cnc2c(N)nc3ccccc3c21",
    "EXPERIMENTAL_SYSTEM": "Adenosine receptor A3 (Homo sapiens)",
    "PROPERTY_LABEL": "IC50",
    "RESULT": "Not Active"
  },
  {
    "COMPOUND": "Cc1cccc(C)c1NC(=O)C(C)N (stereo unspecified) [TOCAINIDE]",
    "EXPERIMENTAL_SYSTEM": "Adenosine receptor A3 (Homo sapiens)",
    "PROPERTY_LABEL": "IC50",
    "RESULT": "Not Active"
  },
  {
    "COMPOUND": "Nc1ccc(C(=O)O)c(O)c1",
    "EXPERIMENTAL_SYSTEM": "Adenosine receptor A3 (Homo sapiens)",
    "PROPERTY_LABEL": "IC50",
    "RESULT": "Not Active"
  },
  {
    "COMPOUND": "NCC(CC(=O)O)c1ccc(Cl)cc1 (stereo unspecified)",
    "EXPERIMENTAL_SYSTEM": "Adenosine receptor A3 (Homo sapiens)",
    "PROPERTY_LABEL": "IC50",
    "RESULT": "Not Active"
  }
]
